Values were extracted from the OligoGym collection.

Test system: Tau
Test protocol: rat primary cortical neurons, FLIPR, 25 uM ASO
Bases are written 5' to 3'; sugars and linkages follow in the same order, as letters with counts (s phosphorothioate, o phosphodiester; PS: all linkages phosphorothioate). The collection does not say whether C is 5-methylated. l = locked nucleic acid (LNA); d = 2'-deoxy (DNA)
Known calcium oscillation score of a selection of sequences
Readout: calcium oscillation score

- Item sequence: "TTTCCTGCAAATTCTCA (sugars l4 d10 l3, PS)"
  Readout: "calcium oscillation score"
  Observed value: "66.8 % of control"
- Item sequence: "TCTTGTTCTAACCCCACA (sugars l2 d14 l2, PS)"
  Readout: "calcium oscillation score"
  Observed value: "68.1 % of control"
- Item sequence: "CTTTATTTCCAAATTCAC (sugars l3 d11 l4, PS)"
  Readout: "calcium oscillation score"
  Observed value: "112 % of control"
- Item sequence: "AATATTACACCATCCAA (sugars l4 d9 l4, PS)"
  Readout: "calcium oscillation score"
  Observed value: "95.7 % of control"
- Item sequence: "CCCAGCGTGATCTTCCATCA (sugars l3 d14 l3, PS)"
  Readout: "calcium oscillation score"
  Observed value: "104 % of control"
- Item sequence: "AACTCAAATCAATTCTCATT (sugars l4 d12 l4, PS)"
  Readout: "calcium oscillation score"
  Observed value: "73.2 % of control"
- Item sequence: "CAGACACCACTGGCGACTTG (sugars l3 d14 l3, PS)"
  Readout: "calcium oscillation score"
  Observed value: "46.5 % of control"
- Item sequence: "TCAGGTCTGGCATGG (sugars l3 d9 l3, PS)"
  Readout: "calcium oscillation score"
  Observed value: "0 % of control"
- Item sequence: "TGGTTAGCCCTAAAGT (sugars l3 d10 l3, PS)"
  Readout: "calcium oscillation score"
  Observed value: "77 % of control"
- Item sequence: "AACGCACCAGGAACCTTCCA (sugars l3 d14 l3, PS)"
  Readout: "calcium oscillation score"
  Observed value: "51.4 % of control"
- Item sequence: "GGCGTTCTCGCGGAAG (sugars l3 d10 l3, PS)"
  Readout: "calcium oscillation score"
  Observed value: "102 % of control"
- Item sequence: "ATAGTCACTCTGGTG (sugars l3 d9 l3, PS)"
  Readout: "calcium oscillation score"
  Observed value: "27.8 % of control"
- Item sequence: "CTCCAATCTTACAGAT (sugars l4 d9 l3, PS)"
  Readout: "calcium oscillation score"
  Observed value: "102 % of control"
- Item sequence: "CCCCATTCAGATCTATC (sugars l2 d13 l2, PS)"
  Readout: "calcium oscillation score"
  Observed value: "98.8 % of control"
- Item sequence: "CAAACCAGTTACCATCA (sugars l4 d9 l4, PS)"
  Readout: "calcium oscillation score"
  Observed value: "87.7 % of control"
- Item sequence: "CCCACAGCACTAAATTT (sugars l3 d11 l3, PS)"
  Readout: "calcium oscillation score"
  Observed value: "83.5 % of control"
- Item sequence: "CTCTGTCACTTACTACTC (sugars l3 d13 l2, PS)"
  Readout: "calcium oscillation score"
  Observed value: "80.8 % of control"
- Item sequence: "TGTTGCCTAATGAGCC (sugars l3 d10 l3, PS)"
  Readout: "calcium oscillation score"
  Observed value: "172 % of control"
- Item sequence: "CAGGTCTGGCATGGGCACGG (sugars l3 d14 l3, PS)"
  Readout: "calcium oscillation score"
  Observed value: "0 % of control"
- Item sequence: "CTTAAAATTTTTCTTATTTT (sugars l4 d12 l4, PS)"
  Readout: "calcium oscillation score"
  Observed value: "62.8 % of control"
- Item sequence: "TCCTAATCCTGTGC (sugars l3 d8 l3, PS)"
  Readout: "calcium oscillation score"
  Observed value: "65 % of control"
- Item sequence: "AAGGTCAGCTTGTGGG (sugars l3 d10 l3, PS)"
  Readout: "calcium oscillation score"
  Observed value: "11.4 % of control"
- Item sequence: "TCCTTTGTAATTCCTTCT (sugars l3 d13 l2, PS)"
  Readout: "calcium oscillation score"
  Observed value: "56.4 % of control"
- Item sequence: "GCAGACACCTCGTCAGCTAG (sugars l3 d14 l3, PS)"
  Readout: "calcium oscillation score"
  Observed value: "59.6 % of control"
